Target: α1A adrenoceptor (Rattus norvegicus, UniProt P43140)
Construct: from tissue; host or cells: rat submaxillary gland membranes
Sequence (P43140 whole entry): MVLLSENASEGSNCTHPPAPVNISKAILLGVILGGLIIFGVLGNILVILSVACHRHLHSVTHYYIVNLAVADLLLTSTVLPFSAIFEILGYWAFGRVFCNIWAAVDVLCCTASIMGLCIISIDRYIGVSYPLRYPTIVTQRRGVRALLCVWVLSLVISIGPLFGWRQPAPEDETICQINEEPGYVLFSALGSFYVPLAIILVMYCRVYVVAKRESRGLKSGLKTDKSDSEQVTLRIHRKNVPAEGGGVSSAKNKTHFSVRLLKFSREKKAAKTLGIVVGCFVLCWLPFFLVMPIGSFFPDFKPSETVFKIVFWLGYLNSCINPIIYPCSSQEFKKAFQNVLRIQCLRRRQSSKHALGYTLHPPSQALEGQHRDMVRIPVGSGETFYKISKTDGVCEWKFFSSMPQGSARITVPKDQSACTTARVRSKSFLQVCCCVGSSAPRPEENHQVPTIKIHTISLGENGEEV
Experiment: Receptor binding assay, displacement of [3H]prazosin, rat submaxillary membranes
Details: [3H]prazosin displacement, rat submaxillary membranes; read-out: α1A (Rat submaxillary) Ki
pKi: −log10 of the molar value. Where a name gives a salt, the structure may show the parent alone.
readout-label: pKi

Sample records with pKi:
{"compound": "CCCCCCOc1ccccc1N1CCN(CCCN2C(=O)C3CC=CCC3C2=O)CC1.Cl (stereo not drawn) [Compound 25, hydrochloride]", "target-or-test-system": "α1A adrenoceptor (Rattus norvegicus, UniProt P43140)", "pKi": 8.48}
{"compound": "O=C1[C@H]2CC=CC[C@H]2C(=O)N1CCCN1CCN(C(c2ccc(F)cc2)c2ccc(F)cc2)CC1 [Compound 19, hydrochloride]", "target-or-test-system": "α1A adrenoceptor (Rattus norvegicus, UniProt P43140)", "pKi": 8.28}

A = Cl.O=C1C2CC=CCC2C(=O)N1CCCN1CCN(c2ccc(Cl)cc2Cl)CC1 (stereo not drawn) [Compound 20, hydrochloride]
B = Cc1ccc(N2CCN(CCCN3C(=O)C4CC=CCC4C3=O)CC2)cc1C.Cl (stereo not drawn) [Compound 07, hydrochloride]
C = CCc1ccccc1N1CCN(CCCN2C(=O)C3CC=CCC3C2=O)CC1.Cl (stereo not drawn) [Compound 09, hydrochloride]
D = Cl.O=C1C2CC=CCC2C(=O)N1CCCN1CCN(c2cccc(Cl)c2)CC1 (stereo not drawn) [Compound 02, hydrochloride]
Q: Returns the items ordered by pKi, from maximum to minimum. Would you mind listing the labels in the order requested?
Result: C, A, D, B

---

Target: α1B adrenoceptor (spleen) (Rattus norvegicus, UniProt P15823)
Construct: Isolated tissues were mounted in organ bath containing Krebs Henseleit buffer; from tissue; host or cells: isolated spleen of male wistar rats
Sequence (P15823 whole entry): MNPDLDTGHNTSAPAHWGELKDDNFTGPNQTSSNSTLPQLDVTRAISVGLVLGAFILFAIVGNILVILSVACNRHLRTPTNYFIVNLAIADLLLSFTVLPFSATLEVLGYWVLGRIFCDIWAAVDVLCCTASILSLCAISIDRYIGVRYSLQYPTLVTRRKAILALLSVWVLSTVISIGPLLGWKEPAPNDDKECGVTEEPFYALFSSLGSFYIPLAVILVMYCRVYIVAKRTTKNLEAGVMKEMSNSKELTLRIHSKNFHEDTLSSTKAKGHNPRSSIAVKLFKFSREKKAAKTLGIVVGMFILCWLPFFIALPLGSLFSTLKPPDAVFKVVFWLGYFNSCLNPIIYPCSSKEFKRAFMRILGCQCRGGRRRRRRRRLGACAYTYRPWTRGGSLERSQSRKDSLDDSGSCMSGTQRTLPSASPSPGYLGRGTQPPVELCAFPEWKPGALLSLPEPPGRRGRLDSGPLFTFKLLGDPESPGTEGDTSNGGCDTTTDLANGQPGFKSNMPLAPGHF
Assay: In vitro functional study, antagonism of phenylepinephrine-induced contraction of spleen
Type: biochemical
Conditions: tested compound at 0.1, 1 and 10 mM, read-out: α Adrenoceptor Subtype (pKB) α1B (converted)
readout-label: Kb (nM)

Sample records with Kb:
{"molecule": "COc1ccccc1N1CCN(CCCN2C(=O)C3CC=CCC3C2=O)CC1.Cl (stereo not drawn) [Compound 01, hydrochloride]", "display-unit": "nM", "result-number": 21.9}
{"molecule": "CCCOc1ccccc1N1CCN(CCCN2C(=O)C3CC=CCC3C2=O)CC1.Cl (stereo not drawn) [Compound 24, hydrochloride]", "display-unit": "nM", "result-number": 14.1}
{"molecule": "CCOc1ccccc1N1CCN(CCCN2C(=O)C3CC=CCC3C2=O)CC1.Cl (stereo not drawn) [Compound 11, hydrochloride]", "display-unit": "nM", "result-number": 5.25}
{"molecule": "CCc1ccccc1N1CCN(CCCN2C(=O)C3CC=CCC3C2=O)CC1.Cl (stereo not drawn) [Compound 09, hydrochloride]", "display-unit": "nM", "result-number": 15.8}

P = CC(C)Oc1ccccc1N1CCN(CCCN2C(=O)C3CC=CCC3C2=O)CC1.Cl (stereo not drawn) [Compound 23, hydrochloride]
Q = CCCCCCOc1ccccc1N1CCN(CCCN2C(=O)C3CC=CCC3C2=O)CC1.Cl (stereo not drawn) [Compound 25, hydrochloride]
R = COc1ccc(F)cc1N1CCN(CCCN2C(=O)C3CC=CCC3C2=O)CC1.Cl (stereo not drawn) [Compound 08, hydrochloride]
S = COc1ccccc1N1CCN(C(C)CCN2C(=O)C3CC=CCC3C2=O)CC1.Cl (stereo not drawn) [Compound 29, hydrochloride]
T = Cl.O=C1C2CC=CCC2C(=O)N1CCCN1CCN(c2ccccc2)CC1 (stereo not drawn) [Compound 13, hydrochloride]
Q: Returns the items ordered by Kb, from maximum to minimum. Would you mind listing the labels in the order requested?
Result: S, T, Q, P, R
